Origin of measurements: patent US20250263470A1

Target: recombinant HA derived from Victoria lineage strain B/BNE/08 (B/Brisbane/60/2008) (influenza B virus B/Brisbane/60/2008)
Test: ELISA on coated recombinant HA, unpurified IgG
MEASURED METRIC: EC50

Asked: Requested field: EC50. Item: FBC-39 FTL (antibody, V domains shown) VH: EVQLVESGGGLVKPGGSLRLSCAASGFTFLNAWMSWVRQAPGKGLEWVGRIKSNTDGGTTDYAAPVKGRFTISRDDSKNTLYLQMSSLKTEDTAVYYCTTDGPYSDDFRSGYAARYRYFGMDVWGQGTTVTVSS VL: DIQMTQSPSSVSASVGDRVTITCRASQDISTWLAWYQQKPGKAPKLLIYAASSLQSGVPSRFSGSGSGTDFTLTISSLQPEDFATYYCQQANSFPPTFGQGTKLEIK
Given back: 0.118 µg/mL

Asked: Requested field: EC50. Item: FBC-39 FSS (antibody, V domains shown) VH: EVQLVESGGGLVKPGGSLRLSCAASGFSFSNAWMSWVRQAPGKGLEWVGRIKSNTDGGTTDYAAPVKGRFTISRDDSKNTLYLQMSSLKTEDTAVYYCTTDGPYSDDFRSGYAARYRYFGMDVWGQGTTVTVSS VL: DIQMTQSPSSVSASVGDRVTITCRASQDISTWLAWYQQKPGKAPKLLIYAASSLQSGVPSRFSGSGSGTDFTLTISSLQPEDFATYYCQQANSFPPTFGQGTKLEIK
Given back: > 1 µg/mL

Asked: Requested field: EC50. Item: FBC-39 LSL (antibody, V domains shown) VH: EVQLVESGGGLVKPGGSLRLSCAASGLSFLNAWMSWVRQAPGKGLEWVGRIKSNTDGGTTDYAAPVKGRFTISRDDSKNTLYLQMSSLKTEDTAVYYCTTDGPYSDDFRSGYAARYRYFGMDVWGQGTTVTVSS VL: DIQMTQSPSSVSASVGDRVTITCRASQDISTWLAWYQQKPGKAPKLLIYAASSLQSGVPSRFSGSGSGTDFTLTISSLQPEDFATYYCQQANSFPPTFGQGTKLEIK
Given back: 0.152 µg/mL

Asked: Requested field: EC50. Item: FBC-39 FSL (antibody, V domains shown) VH: EVQLVESGGGLVKPGGSLRLSCAASGFSFLNAWMSWVRQAPGKGLEWVGRIKSNTDGGTTDYAAPVKGRFTISRDDSKNTLYLQMSSLKTEDTAVYYCTTDGPYSDDFRSGYAARYRYFGMDVWGQGTTVTVSS VL: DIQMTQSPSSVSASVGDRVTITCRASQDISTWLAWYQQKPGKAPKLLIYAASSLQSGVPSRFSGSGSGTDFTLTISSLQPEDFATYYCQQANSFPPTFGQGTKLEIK
Given back: 0.273 µg/mL

Asked: Requested field: EC50. Item: FBC-39 LTL (antibody, V domains shown) VH: EVQLVESGGGLVKPGGSLRLSCAASGLTFLNAWMSWVRQAPGKGLEWVGRIKSNTDGGTTDYAAPVKGRFTISRDDSKNTLYLQMSSLKTEDTAVYYCTTDGPYSDDFRSGYAARYRYFGMDVWGQGTTVTVSS VL: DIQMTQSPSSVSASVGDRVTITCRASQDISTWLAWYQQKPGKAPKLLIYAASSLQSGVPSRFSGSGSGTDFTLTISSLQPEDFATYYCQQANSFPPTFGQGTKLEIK
Given back: 0.114 µg/mL

Asked: Requested field: EC50. Item: FBC-39 LTS (antibody, V domains shown) VH: EVQLVESGGGLVKPGGSLRLSCAASGLTFSNAWMSWVRQAPGKGLEWVGRIKSNTDGGTTDYAAPVKGRFTISRDDSKNTLYLQMSSLKTEDTAVYYCTTDGPYSDDFRSGYAARYRYFGMDVWGQGTTVTVSS VL: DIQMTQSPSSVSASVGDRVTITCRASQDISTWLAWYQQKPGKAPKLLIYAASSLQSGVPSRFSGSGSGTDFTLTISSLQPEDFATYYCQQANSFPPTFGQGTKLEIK
Given back: > 1 µg/mL
